assay.method.text: Antagonist activity at mouse CCR4 receptor expressed in mouse B300-19 cells assessed as CCL22-induced chemotaxis
pIC50: −log10 of the molar value.
Class Criterion met: pIC50 at least 7. Class Criterion not met: pIC50 below 7.

compound	assigned.class
COc1cc2nc(N3CCC(N4CCCC(CO)C4)CC3)nc(Nc3ccc(Cl)cc3)c2cc1OC (stereo not drawn)	Criterion met
COc1cc2nc(N3CCC(N4CCCC(OC)C4)CC3)nc(Nc3ccc(Cl)cc3)c2cc1OC (stereo not drawn)	Criterion not met
COCC1CCCN(C2CCN(c3nc(Nc4ccc(Cl)cc4)c4cc(OC)c(OC)cc4n3)CC2)C1 (stereo not drawn)	Criterion not met
COc1cc2nc(N3CCC(N4CCCC(O)C4)CC3)nc(Nc3ccc(Cl)cc3)c2cc1OC (stereo not drawn)	Criterion not met
COc1cc2nc(N3CCC(N4CCCC(CO)C4)CC3)nc(NC3CCCCCC3)c2cc1OC (stereo not drawn)	Criterion met
COc1cc2nc(N3CCC(N4CCCC(CO)C4)CC3)nc(NCCc3ccc(Cl)cc3)c2cc1OC (stereo not drawn)	Criterion not met
COc1cc2nc(N3CCC(N4CCCCC4)CC3)nc(NC3CCCCCC3)c2cc1OC	Criterion met
